target-desc: T1, human DLL3 antigen (human, UniProt Q9NYJ7 27-492, limits assumed)
T1 construct: also called immobilized human DLL3; recombinant human DLL3
T1 sequence (looked up): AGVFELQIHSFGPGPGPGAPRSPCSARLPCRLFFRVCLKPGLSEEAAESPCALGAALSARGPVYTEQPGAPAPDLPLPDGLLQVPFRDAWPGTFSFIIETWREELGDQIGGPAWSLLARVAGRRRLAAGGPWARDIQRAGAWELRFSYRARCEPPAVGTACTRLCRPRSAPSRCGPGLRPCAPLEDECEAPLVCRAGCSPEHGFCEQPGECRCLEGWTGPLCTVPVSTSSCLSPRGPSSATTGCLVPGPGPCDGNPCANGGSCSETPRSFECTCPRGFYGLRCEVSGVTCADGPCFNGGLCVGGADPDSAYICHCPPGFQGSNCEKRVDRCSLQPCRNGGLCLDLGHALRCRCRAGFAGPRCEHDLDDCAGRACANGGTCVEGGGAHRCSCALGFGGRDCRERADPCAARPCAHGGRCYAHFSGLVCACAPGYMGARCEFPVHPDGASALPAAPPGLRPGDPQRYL
assay-text: ELISA or flow cytometry screen
reported-property: binding result

[[record]]
binder = "SC16.122 (antibody, V domains shown, murine mAb) VH: EVQLVESGGGLVKPGGSLKLSCAASGFTFSDYYMFWVRQTPEKRLEWVATISDGGSYTYFPDSVKGRFTISRDNAQNNLYLQMSSLKSEDTAMYYCARAGTLYAMDYWGQGTSVTVSS VL: DIVMTQSQKFMSTSVGDRVSVTCKASQNVGTNVAWYQQKPGQSPKVLIYSASYRYSGVPDRFTGSGSGTDFTLTISNVQSEDLAEFFCQQYNSYPLTFGGGTKLEIK"
result = "binds"

[[record]]
binder = "SC16.52 (antibody, V domains shown, murine mAb) VH: QVQLKESGPGLVAPSQSLSITCAVSGFSLTSFAIHWFRKPPGKGLEWLGVIWTGGTTNYNSALMSRLSISKDNSKSQVFLKMNSLQTDDTAMYYCARDDYDNNYAMDYWGQGTSVTVSS VL: DIQMIQSPSSMFASLGDRVSLSCRASQGIRGTLDWYQQKPNGTIKLLIYSTSNLNSGVPSRFSGSGSGSDYSLTISSLESEDFADYYCLQRNAYPLTFGAGTKLELK"
result = "binds"

[[record]]
binder = "SC16.65 (antibody, V domains shown, murine mAb) VH: QVTLKESGPGILQPSQTLSLTCSFSGFSLSTSGMGVGWIRQPSGKGLEWLALIWWDDVKRYNPALKSRLTISKDASSSQVFLKIASVDTADTATYYCARIASYDYDVVYAMDYWGQGTSVSVSS VL: QIVLTQSPALMSASPGEKVTMTCSVTSSVSYMYWYQQKPRSSPKPWIYLTSNLASGVPARFSGSGSGTSYSLTISSVEAEDAATYYCQQWRNNPFTFGSGTKVEIK"
result = "binds"


// data source = patent US20140370037A1
